- system: NR1A/NR2B NMDA receptor subtype (Rattus norvegicus, UniProt P35439+Q00960)
- Construct: buffy coat membrane fraction was prepared from frozen adult rat forebrains; tissue Zivic-Miller Laboratories, Inc; host or cells: adult rat forebrain membranes
- Sequence (Q00960 27-1482, other chains not shown): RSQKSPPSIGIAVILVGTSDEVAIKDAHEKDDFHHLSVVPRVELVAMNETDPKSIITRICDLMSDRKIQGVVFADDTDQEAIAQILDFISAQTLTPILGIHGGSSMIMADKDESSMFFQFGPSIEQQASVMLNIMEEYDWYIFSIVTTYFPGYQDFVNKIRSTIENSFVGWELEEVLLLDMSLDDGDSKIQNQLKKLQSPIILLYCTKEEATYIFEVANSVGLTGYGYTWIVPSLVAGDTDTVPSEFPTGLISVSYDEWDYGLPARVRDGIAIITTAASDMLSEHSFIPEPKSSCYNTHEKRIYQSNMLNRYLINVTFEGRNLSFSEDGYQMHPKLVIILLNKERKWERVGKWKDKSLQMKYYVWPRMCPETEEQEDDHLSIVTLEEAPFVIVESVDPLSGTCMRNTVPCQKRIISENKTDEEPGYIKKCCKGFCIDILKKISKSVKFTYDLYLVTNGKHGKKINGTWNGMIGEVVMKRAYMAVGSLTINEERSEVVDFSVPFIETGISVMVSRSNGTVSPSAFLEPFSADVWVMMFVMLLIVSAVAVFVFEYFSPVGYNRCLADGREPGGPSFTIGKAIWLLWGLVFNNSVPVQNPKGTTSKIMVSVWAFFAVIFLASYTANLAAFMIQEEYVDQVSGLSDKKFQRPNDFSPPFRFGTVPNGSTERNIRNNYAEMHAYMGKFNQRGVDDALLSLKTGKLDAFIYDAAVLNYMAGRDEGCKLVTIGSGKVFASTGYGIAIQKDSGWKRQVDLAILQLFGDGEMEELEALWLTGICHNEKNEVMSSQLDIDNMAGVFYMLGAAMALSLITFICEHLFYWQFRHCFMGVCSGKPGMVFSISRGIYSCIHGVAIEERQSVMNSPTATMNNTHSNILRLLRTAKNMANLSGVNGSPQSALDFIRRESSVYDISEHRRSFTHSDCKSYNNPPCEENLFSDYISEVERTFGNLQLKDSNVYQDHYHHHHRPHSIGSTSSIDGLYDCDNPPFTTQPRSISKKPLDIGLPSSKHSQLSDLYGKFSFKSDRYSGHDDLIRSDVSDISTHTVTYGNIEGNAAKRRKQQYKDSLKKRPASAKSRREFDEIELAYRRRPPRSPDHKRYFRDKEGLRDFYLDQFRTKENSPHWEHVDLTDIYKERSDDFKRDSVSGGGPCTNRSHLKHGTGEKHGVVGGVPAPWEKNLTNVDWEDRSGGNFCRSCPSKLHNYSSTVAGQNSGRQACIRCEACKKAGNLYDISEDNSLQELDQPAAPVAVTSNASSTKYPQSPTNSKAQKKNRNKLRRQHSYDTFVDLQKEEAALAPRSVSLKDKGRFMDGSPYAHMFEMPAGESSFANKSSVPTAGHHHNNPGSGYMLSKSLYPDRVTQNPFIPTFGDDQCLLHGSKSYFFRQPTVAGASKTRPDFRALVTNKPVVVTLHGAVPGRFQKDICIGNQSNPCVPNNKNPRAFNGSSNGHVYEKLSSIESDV
- method-summary: [3H]Ifenprodil binding assay (IFPNR), rat forebrain membranes
- conditions-used: Table 2, 4 nM [3H]-ifenprodil, read-out: IFPNR IC50 μm
pIC50: −log10 of the molar value.
pIC50 listing for selected molecules.
observable: pIC50

{"molecule": "O=C1Cc2cc(-c3cnc(CN4CCC(Cc5ccccc5)CC4)o3)ccc2N1", "observable": "pIC50", "rel": "<", "recorded-number": 6.00}
{"molecule": "O=c1[nH]c2ccc(C3CC(CN4CCC(Cc5ccc(F)cc5)CC4)=NO3)cc2o1 (stereo not shown)", "observable": "pIC50", "rel": "=", "recorded-number": 7.33}
{"molecule": "O=c1[nH]c2ccc(-c3cnc(CN4CCC(Cc5ccc(F)cc5)CC4)s3)cc2s1", "observable": "pIC50", "rel": "=", "recorded-number": 6.35}
{"molecule": "O=c1[nH]c2ccc(-c3cnc(CN4CCC(Cc5ccccc5)CC4)o3)cc2o1", "observable": "pIC50", "rel": "<", "recorded-number": 6.00}
